Tested on: Chordin-like protein 2 (CHRDL2)
test-details: CHRDL2 small-molecule binders, primary screen, biochemical, small-molecule microarray, 635 nm fluorescence (AID 1126);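 further: printed compound slides probed with Chrdl2 protein at 4 µg/mL for 1 h at 4 C; score merges 667 nm emission intensity with signal to noise over three replicate slides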
condition-notes: small-molecule microarray binding, fluorescence 635 nm; higher = more signal
The entries below come with measured composite z-score values attached.
# respond with the number and nothing more

molecule: CC(=O)c1ccc(C(O)C2C=CC3C(=O)N(C)C(=O)C3N2NC(=O)OC(C)(C)C)cc1 (stereo not drawn)
composite z-score: -0.971

Noted for "COc1ccc(CC[C@H](O)c2cccc(OCC(=O)OC(C)(C)C)c2)cc1" : its composite z-score reads 0.723

Entry under test: "CC(C)C[C@@H]1NC(=O)[C@@H]2C[C@H](C(=O)NCCCC[N+](C)(C)C)[C@H](c3ccc(O)cc3)N2C1=O" . Its composite z-score was 1.37

Reported composite z-score of C=CCC(OC(C)=O)[C@@H]1[C@@H](N(Cc2ccc(-c3cccc(C(F)(F)F)c3)o2)C(=O)Cc2ccc(F)cc2)c2cc(OCCCO)ccc2N1C(=O)c1ccc2ccccc2n1 (stereo partly drawn) : 0.353

Form: molecule = "CCCCCCc1nc(-c2ccc(OC)nc2)cc2c1[Si](C(C)C)(C(C)C)OC2" ; composite z-score = -0.0659

Looking up "CO[C@H]1O[C@H](CO)[C@@H](OC(=O)Nc2ccc3c(c2)OCO3)[C@@H]2OC(=O)[C@@H](Cc3ccccc3)C/C=C/C[C@H](Cc3ccccc3)C(=O)O[C@@H]12" , I found its composite z-score recorded as 0.455

composite z-score recorded for this molecule, "CCCC[C@@H]1C[C@H]1[C@@H](NC(=O)c1ccc(C(F)(F)F)cc1)c1ccc(C(=O)OC)cc1" , is 1.27

# composite z-score of "COCC(=C=CC[C@@H](O)c1ccc(OCCO)cc1)C[C@@H](O)COCc1ccccc1" = 0.0466

====

test-details: basal S. cerevisiae growth modulation, no modifier, primary screen, OD600, strain BY4716, 24 h, basal condition (AID 1173)
condition-notes: OD600, 24 h, higher = more signal, called active from +8 up or from −8 down
Values of z-score greater than or equal to 0.07 map to Fulfilled; values below map to Not fulfilled.

Consider the following illustrative entries.
molecule: CN1C(=O)C2C=CC(C(O)c3ccc(-c4ccccc4)s3)N(Nc3ccccc3)C2C1=O (stereo not given)
class: Not fulfilled
--
molecule: CCCCN1CC=CC23O[C@@H]4C=CCOC(=O)[C@@H]4[C@H]2C(=O)N(CCO)[C@@H]3C1=O (stereo not given in full)
class: Fulfilled

Could you verify whether the entry "CCCC[C@@H]1C[C@H]1[C@@H](NC(=O)Cc1ccccc1)c1ccc(Cl)cc1" shows z-score of no less than 0.07?
Not fulfilled

Is z-score for "C=C(COC)/C(=C/C[C@H](OC(=O)c1ccncc1)c1ccc(OCCO)cc1)c1cc(C(=O)OC)ccc1OC" at or above 0.07?
Fulfilled

Can "COCCOC(=O)N1C(=O)[C@@]2(c3cc(C#CC4=CCCCC4)ccc31)[C@H](c1ccccc1OCCO)N1[C@H](c3ccccc3)[C@H](c3ccccc3)OC(=O)[C@H]1[C@@H]2C(N)=O" be said to have z-score at or above 0.07?
Not fulfilled

====

assayed-target: Luciferin 4-monooxygenase (Photinus pyralis) (UniProt P08659)
Sequence (P08659 whole entry, looked up): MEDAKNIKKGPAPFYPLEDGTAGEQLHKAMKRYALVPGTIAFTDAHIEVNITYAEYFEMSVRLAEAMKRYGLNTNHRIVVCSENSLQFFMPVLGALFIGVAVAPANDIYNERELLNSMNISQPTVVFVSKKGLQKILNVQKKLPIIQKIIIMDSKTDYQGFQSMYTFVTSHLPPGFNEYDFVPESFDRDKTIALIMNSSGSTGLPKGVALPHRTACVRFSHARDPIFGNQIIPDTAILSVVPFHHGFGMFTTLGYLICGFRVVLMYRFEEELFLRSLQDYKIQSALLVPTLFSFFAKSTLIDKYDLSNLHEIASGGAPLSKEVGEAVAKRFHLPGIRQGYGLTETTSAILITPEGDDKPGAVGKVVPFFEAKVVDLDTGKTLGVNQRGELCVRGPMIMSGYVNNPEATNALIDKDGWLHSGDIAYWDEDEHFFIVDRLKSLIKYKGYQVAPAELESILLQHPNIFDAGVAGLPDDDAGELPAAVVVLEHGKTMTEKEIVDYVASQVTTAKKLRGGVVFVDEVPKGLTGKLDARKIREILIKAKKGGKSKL
test-details: firefly luciferase enzyme inhibitors, primary screen, biochemical, luminescence, purified enzyme, 2006 set (AID 1141);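 further: cell-free assay with purified firefly luciferase at 100 ng per well in PBS; test concentration not given here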
condition-notes: SteadyGlo luminescence, 30 min, called active from +8 up or from −8 down
Active and inactive are the calls of the source.
A correct response names exactly one class from yes (1) for active, no (0) for inactive

Completed entries (count: 8):
compound: C=CCC(OC(C)=O)[C@@H]1[C@@H](N(Cc2ccc(-c3cccc(C(F)(F)F)c3)o2)C(=O)c2cccc3ccccc23)c2cc(OCCCO)ccc2N1C(=O)c1ccc2ccccc2n1 (stereo not given in full)
class: no (0)
--
compound: CCCC[C@@H](O)C1=C(COC)Cn2c(=O)n(-c3ccccc3)c(=O)n2[C@H]1CO
class: no (0)
--
compound: COCCOC(=O)N1C(=O)[C@@]2(c3cc(C#CC4=CCCCC4)ccc31)[C@H](c1ccc(OCCO)cc1)N1[C@H](c3ccccc3)[C@H](c3ccccc3)OC(=O)[C@H]1[C@@H]2C(=O)N1CCCCCCC1
class: no (0)
--
compound: C=CC[C@]1(C(=O)NCc2ccccc2)COC(c2ccc(OCCCO)cc2)=N1
class: no (0)
--
compound: C=C(COC)/C(=C/C[C@H](OC(=O)c1ccncc1)c1ccc(OCCO)cc1)c1cc(C(=O)OC)ccc1OC
class: no (0)
--
compound: CC(C)CNC(=O)[C@@]1(C)c2ccccc2C(=O)N(Cc2cc(F)cc(C(F)(F)F)c2)[C@H]1c1ccc(CO)cc1
class: no (0)
--
compound: CC(=O)NCCCC[C@@H]1NC(=O)[C@@H]2C[C@H](C(=O)NCCCCCC[N+](C)(C)C)[C@H](c3ccc(O)cc3)N2C1=O
class: no (0)
--
compound: COCCOC(=O)N1C(=O)[C@@]2(c3cc(C#CCCO)ccc31)[C@H](c1ccccc1OCCO)N1[C@H](c3ccccc3)[C@H](c3ccccc3)OC(=O)[C@H]1[C@@H]2C(=O)N1CCc2cc(OC)c(OC)cc2C1
class: no (0)

How did this test come out for "CC(C)CNC(=O)[C@@H]1c2ccccc2C(=O)N(Cc2ccccc2)[C@H]1c1ccc(CO)cc1" ?
no (0)

====

System: Human papillomavirus type 1a E7 protein (residues 1-88)
test-details: HPV1a E7 small-molecule binders, primary screen, biochemical, small-molecule microarray, residues 1-88, 635 nm (AID 1129)
condition-notes: small-molecule microarray binding, fluorescence 635 nm; higher = more signal
readout: composite z-score
The reply should be a number, written without any unit.

compound: COC(=O)C(CC#Cc1ccc2c(c1)[C@]1(C(=O)N2)[C@H](c2ccc(O)cc2)N2[C@H](c3ccccc3)[C@H](c3ccccc3)OC(=O)[C@H]2[C@@H]1C(=O)N1CCc2cc(OC)c(OC)cc2C1)C(=O)OC
composite z-score: 0.953
//
compound: CCOC(=O)C[C@H]1[C@H](OC(=O)c2ccc(-c3ccccc3)cc2)[C@@H](NC(=O)c2ccc3ccccc3c2)c2cc(OCCCO)ccc2N1C(=O)c1ccccc1
composite z-score: 1.05
//
compound: O=C1c2ccccc2[C@](Cc2ccccc2I)(C(=O)O)[C@H](c2ccc(CO)cc2)N1Cc1ccccc1
composite z-score: 0.0602
//
compound: CC[C@H](C)C(=O)O[C@H]1CC[C@]2(C)C3=C(CCC2C1(C)C)[C@]1(C)CC[C@H]([C@H](C)CCCC(C)C)[C@@]1(C)CC3 (some centres undefined)
composite z-score: 0.666
//
compound: COC(=O)[C@@]1(Cc2ccc(F)cc2)[C@H]2c3cc(C(=O)N(C)C)n(CCN4CCOCC4)c3C[C@H]2CN1C(=O)c1ccccc1
composite z-score: 1.19
//
compound: CCC[C@@H]1[C@@H](Sc2ccccc2)[C@@H](C(=O)O)[C@H](c2ccc(C)cc2)N1S(=O)(=O)c1ccc(C)cc1
composite z-score: 1.25
//
compound: Cc1ccc(S(=O)(=O)N2[C@@H](c3ccccc3)C(C(=O)O)=CC[C@H]2c2ccc(C#N)cc2)cc1
composite z-score: 1.31
//
compound: CCOC(=O)C[C@H]1[C@H](OC(=O)c2ccc(C(=O)c3ccccc3)cc2)[C@@H](NC(=O)c2ccc3ccccc3c2)c2cc(OCCCO)ccc2N1C(=O)c1ccc2ccccc2n1
composite z-score: 0.578
//
compound: C=CCNC(=O)[C@@H]1[C@H]2C(=O)O[C@H](c3ccccc3)[C@H](c3ccccc3)N2[C@H](c2ccccc2OCCO)[C@@]12C(=O)N(C(=O)OCCOC)c1ccc(C#CCCO)cc12
composite z-score: 1.21
//
compound: CC(C)C[C@@H]1NC(=O)[C@@H]2C[C@H](C(=O)O)[C@H](c3ccc(O)cc3)N2C1=O
composite z-score: 1.13

// field: composite z-score; key: "COCCOC(=O)N1C(=O)[C@@]2(c3cc(C#CCC(C(=O)OC)C(=O)OC)ccc31)[C@H](C(N)=O)[C@H]1C(=O)O[C@H](c3ccccc3)[C@H](c3ccccc3)N1[C@@H]2c1ccc(OCCO)cc1" ; value = 1.22

So for "CC(C)(C)OC(=O)CC[C@]1(C(N)=O)N=C(c2ccc(OCCCO)cc2)O[C@H]1c1ccccc1CN=[N+]=[N-]" , the logged composite z-score turned out to be 1.15

What the record says about "C[N+](C)(C)CCCCCCNC(=O)[C@H]1C[C@H]2C(=O)NCC(=O)N2[C@H]1c1cccc(OCCO)c1" : composite z-score is 0.283

Briefly, composite z-score measured for CC1CC/C=C\[C@H]2OC34C=CCN(c5ccc(Cl)cc5)C(=O)[C@H]3N(CCCO)C(=O)[C@]4(C)C2C(=O)O1 (some centres undefined) : -0.796

For reference, reported composite z-score for "CC(C)CNC(=O)[C@@]1(C)c2ccccc2C(=O)N(Cc2cc(F)cc(C(F)(F)F)c2)[C@H]1c1ccc(CO)cc1" stands at 0.85

# composite z-score (compound: "CC(C)C(=C=CC[C@@H](O)c1ccc(OCCO)cc1)CCO" ) is -0.744

So, "COC(=O)[C@@]1(Cc2ccccc2)[C@H]2c3cc(C(=O)N4CCCC4)n(Cc4ccc(C(F)(F)F)nc4)c3C[C@H]2CN1C(=O)c1ccccc1" ? Its composite z-score was 1.28

composite z-score reported for this compound CCN(CC)c1ccc(N2CC=CC34O[C@@H]5C=CCOC(=O)[C@@H]5[C@H]3C(=O)N(CCCO)[C@@H]4C2=O)cc1 (some centres undefined) : -1.05

Entry "Cc1ccc(F)cc1S(=O)(=O)N[C@@H]1CCN(Cc2ccc3c(c2)OCO3)C1" — recorded composite z-score = -0.844

GET /value?item= "CCCCC=C[C@@H](NC(=O)c1ccc(C(F)(F)F)cc1)c1ccccc1" &field=composite z-score returns -0.839

Per the records, this compound ( "COC(=O)[C@@]1(Cc2ccc(OC)cc2)[C@@H]2[C@@H](CC(=O)[C@H]2CC(=O)C(=O)N2CCCC2)CN1C(=O)c1ccccc1" ) has composite z-score equal to 1.27

Lab note: "CO[C@H]1O[C@H](CO)[C@@H](OC(=O)Nc2ccc3c(c2)OCO3)[C@@H]2OC(=O)[C@@H](Cc3ccccc3)C/C=C/C[C@H](Cc3ccccc3)C(=O)O[C@@H]12" gave composite z-score of 1.18

Briefly, composite z-score measured for "CCCCNC(=O)c1ccc(C#C[Si](C)(C)C)c(OC(C)=O)c1" : 0.689

The reported composite z-score of the compound "C#CCN(C/C=C/c1ccccc1)[C@H](CO[Si](C)(C)C(C)(C)C)c1ccccc1" was -0.786

// sample "C[C@]1(C(=O)NCC(F)(F)F)c2ccccc2C(=O)N(Cc2ccc(OC(F)(F)F)cc2)[C@H]1c1ccc(CO)cc1" , its composite z-score was 0.269

The value of composite z-score measured for the compound N#Cc1ccc(C(O)C2C=CC3C(=O)NC(=O)C3N2Nc2ccccn2)cc1 (centres undefined) turned out to be 0.615

GET /value?item= "CC(C)CNC(=O)[C@@H]1c2ccccc2C(=O)N(C2Cc3ccccc3C2)[C@H]1c1ccc(CO)cc1" &field=composite z-score returns 0.516

The compound identified as "COCC(=C=CC[C@@H](O)c1ccc(OCCO)cc1)C[C@@H](O)COCc1ccccc1" registered its composite z-score at 0.893

Lab note: "CC1(C)OC[C@@]23C=C(Br)[C@@H](C[C@H]12)[C@@]1(CO1)C3=O" gave composite z-score of 0.62
